- Target of assay: UniProt P36956
- Protocol notes: Inhibition of SREBP (unknown origin) expressed in HEK293 cells assessed as reduction in LDLr promotor activity after 24 hrs by luciferase reporter assay
- Type: cell-based
Activity calls are given as the source filed them. The rule behind the calls is not given here.
Outcome codes: active, inactive

| Compound | Category label |
| --- | --- |
| C[C@H](CCC1OC1(C)C)[C@H]1CC[C@@]2(C)C3=C(CC[C@]12C)[C@@]1(C)CC[C@H](O)C(C)(C)[C@@H]1CC3 (stereo partly drawn) | active |
| C[C@H](CCCC(C)(C)O)[C@H]1CC[C@H]2[C@@H]3CCC4=CC(=O)CC[C@]4(C)[C@H]3CC[C@]12C | active |
| CC(C)CCC[C@@H](C)[C@H]1CC[C@@]2(C)C3=C(C(=O)C[C@]12C)[C@@]1(C)CC[C@H](O)C(C)(C)[C@@H]1CC3=O | inactive |
| CC(C)CCC[C@@H](C)[C@H]1CC[C@@]2(C)C3=C(CC[C@]12C)[C@@]1(C)CC[C@H](O)C(C)(C)[C@@H]1CC3 | inactive |
| C[C@H](CCCC(C)(C)O)[C@H]1CC[C@H]2[C@@H]3CC=C4C[C@@H](O)CC[C@]4(C)[C@H]3CC[C@]12C | active |
| CC(C)CCC[C@@H](C)[C@H]1CC[C@H]2[C@@H]3CC=C4C(C)(C)[C@@H](O)CC[C@]4(C)[C@H]3CC[C@]12C | inactive |
| CC(C)CCC[C@@H](C)[C@H]1CC[C@H]2[C@@H]3CC=C4C[C@@H](O)CC[C@]4(CO)[C@H]3CC[C@]12C | inactive |
| C[C@H](CCCC(C)(C)O)[C@H]1CC[C@@]2(C)C3=C(CC[C@]12C)[C@@]1(C)CC[C@H](O)C(C)(C)[C@@H]1CC3 | active |
| C[C@H](CCCC(C)(C)O)[C@H]1CC[C@H]2[C@@H]3C[C@@H](O)[C@@]4(O)C[C@@H](O)CC[C@]4(C)[C@H]3CC[C@]12C | inactive |
| CC(C)CCC[C@@H](C)[C@H]1CC[C@H]2[C@@H]3C[C@@H](O)[C@@]4(O)C[C@@H](O)CC[C@]4(C)[C@H]3CC[C@]12C | inactive |
| CC(C)OP(=O)(OC(C)C)C(Cc1cc(C(C)(C)C)c(O)c(C(C)(C)C)c1)P(=O)(OC(C)C)OC(C)C | inactive |
| C[C@H](CCC(O)C(C)(C)O)[C@H]1CC[C@@]2(C)C3=C(CC[C@]12C)[C@@]1(C)CC[C@H](O)C(C)(C)[C@@H]1CC3 (stereo partly drawn) | active |
| C[C@H](CCCO)[C@H]1CC[C@@]2(C)C3=C(CC[C@]12C)[C@@]1(C)CC[C@H](O)C(C)(C)[C@@H]1CC3 | inactive |

----------
- Target of assay: 3-hydroxy-3-methylglutaryl-coenzyme A reductase (Homo sapiens) (UniProt P04035)
- Sequence (P04035 whole entry): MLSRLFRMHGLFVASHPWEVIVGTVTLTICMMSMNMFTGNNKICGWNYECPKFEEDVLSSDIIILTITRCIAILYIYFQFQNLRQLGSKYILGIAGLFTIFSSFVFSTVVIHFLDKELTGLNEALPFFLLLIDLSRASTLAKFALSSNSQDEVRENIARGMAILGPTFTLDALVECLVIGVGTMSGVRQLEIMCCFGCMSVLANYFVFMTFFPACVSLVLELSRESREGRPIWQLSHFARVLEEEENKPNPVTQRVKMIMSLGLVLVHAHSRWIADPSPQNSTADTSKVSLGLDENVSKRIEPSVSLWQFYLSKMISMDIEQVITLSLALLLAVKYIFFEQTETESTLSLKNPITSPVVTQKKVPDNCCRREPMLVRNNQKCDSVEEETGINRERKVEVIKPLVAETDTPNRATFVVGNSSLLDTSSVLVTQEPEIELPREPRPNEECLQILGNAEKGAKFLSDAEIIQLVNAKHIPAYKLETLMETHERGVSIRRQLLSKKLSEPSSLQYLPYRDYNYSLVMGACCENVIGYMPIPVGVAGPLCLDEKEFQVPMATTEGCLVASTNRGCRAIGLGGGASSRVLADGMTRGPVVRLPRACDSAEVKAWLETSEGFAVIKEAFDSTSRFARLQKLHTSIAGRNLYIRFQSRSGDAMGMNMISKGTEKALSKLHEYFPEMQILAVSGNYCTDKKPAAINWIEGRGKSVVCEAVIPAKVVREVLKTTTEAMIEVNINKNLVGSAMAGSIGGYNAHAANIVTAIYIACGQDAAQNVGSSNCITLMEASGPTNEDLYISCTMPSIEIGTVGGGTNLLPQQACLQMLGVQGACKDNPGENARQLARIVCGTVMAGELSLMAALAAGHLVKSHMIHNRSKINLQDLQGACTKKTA
- Protocol notes: Induction of human HMGCR-dCat-ELuc degradation expressed in HEK293 cells assessed as reduction in luciferase activity after 4 hrs by luciferase reporter assay
- Format: cell-based
Activity calls are given as the source filed them. No cut-off for these calls is given here.
Outcomes: Y (active), N (inactive)

| Compound | Category label |
| --- | --- |
| CC(C)CCC[C@@H](C)[C@H]1CC[C@@]2(C)C3=C(CC[C@]12C)[C@@]1(C)CC[C@H](O)C(C)(C)[C@@H]1CC3 | N |
| CC(C)OP(=O)(OC(C)C)C(Cc1cc(C(C)(C)C)c(O)c(C(C)(C)C)c1)P(=O)(OC(C)C)OC(C)C [APOMINE] | Y |
| C[C@H](CCCC(C)(C)O)[C@H]1CC[C@H]2[C@@H]3CCC4=CC(=O)CC[C@]4(C)[C@H]3CC[C@]12C | N |
| C[C@H](CCCC(C)(C)O)[C@H]1CC[C@H]2[C@@H]3CC=C4C[C@@H](O)CC[C@]4(C)[C@H]3CC[C@]12C | Y |
| C[C@H](CCC(O)C(C)(C)O)[C@H]1CC[C@@]2(C)C3=C(CC[C@]12C)[C@@]1(C)CC[C@H](O)C(C)(C)[C@@H]1CC3 (some centres not stated) | Y |
| C[C@H](CCC1OC1(C)C)[C@H]1CC[C@@]2(C)C3=C(CC[C@]12C)[C@@]1(C)CC[C@H](O)C(C)(C)[C@@H]1CC3 (some centres not stated) | Y |
| CC(C)CCC[C@@H](C)[C@H]1CC[C@H]2[C@@H]3CC=C4C[C@@H](O)CC[C@]4(CO)[C@H]3CC[C@]12C | N |
